system: Pseudomonas aeruginosa PAM 1723 strain highly expressing the drug efflux pump; assay: Effect of combinational use with an antimicrobial agent on multidrug resistant Pseudomonas aeruginosa (broth culture, transmittance and turbidity readout); format: cell-based; settings: minimum concentration of compound required to enhance antibacterial activity, levofloxacin (LVFX) at 1/8 or less of the minimum inhibitory concentration, combinational use for 7.5 hours, MHB, 1 × 10^6 CFU/ml
propertyLabel: Combination with LVFX (µg/mL)
The response must be a number in µg/mL with no trailing unit.

Before answering, review these 5 worked examples.
molecule="O=C(Cc1ccccc1C(=O)O)Nc1cccc(/C=C/c2nc3cccnc3s2)c1 [Example 6]" datavalue=20
molecule="O=C(Cc1ccccc1C(=O)O)Nc1cccc(/C=C/c2ccc(-c3ccccc3)o2)c1 [Example 4]" datavalue=10
molecule="COC(=O)c1cc(NC(=O)Cc2ccccc2C(=O)O)cc(OCc2nc(C(C)C)cs2)c1 [Example 16]" datavalue=160
molecule="CC(C)c1nc(/C=C/c2cccc(NC(=O)Cc3ccccc3C(=O)O)c2)sc1N [Example 5]" datavalue=10
molecule="O=C(Cc1ccccc1C(=O)O)Nc1cccc(OCc2ccc3ccccc3n2)c1 [Example 2]" datavalue=20

For Pseudomonas aeruginosa PAM 1723 strain highly expressing the drug efflux pump, give the measured Combination with LVFX of the entry CC(C)c1csc(/C=C/c2cncc(NC(=O)[C@H]3OC(C)(C)O[C@@H]3C(=O)O)c2)n1 [Example 15]
20

For Pseudomonas aeruginosa PAM 1723 strain highly expressing the drug efflux pump, give the measured Combination with LVFX of the entry CC(C)c1csc(/C=C/c2cccc(NC(=O)Cc3ccccc3C(=O)O)n2)n1 [Example 18]
10

For Pseudomonas aeruginosa PAM 1723 strain highly expressing the drug efflux pump, give the measured Combination with LVFX of the entry CC(C)c1cccc(COc2cccc(NC(=O)Cc3ccccc3C(=O)O)c2)n1 [Example 9]
0.63

For Pseudomonas aeruginosa PAM 1723 strain highly expressing the drug efflux pump, give the measured Combination with LVFX of the entry O=C(Cc1ccccc1C(=O)O)Nc1cccc(/C=C/c2nc(-c3ccncc3)cs2)c1 [Example 8]
0.63

For Pseudomonas aeruginosa PAM 1723 strain highly expressing the drug efflux pump, give the measured Combination with LVFX of the entry CC(C)c1csc(/C=C/c2cncc(NC(=O)Cc3ccccc3C(=O)O)c2)n1 [Example 17]
0.63

For Pseudomonas aeruginosa PAM 1723 strain highly expressing the drug efflux pump, give the measured Combination with LVFX of the entry O=C(Cc1ccccc1C(=O)O)Nc1cccc(/C=C/c2nc3ccccc3o2)c1 [Example 7]
2.5

For Pseudomonas aeruginosa PAM 1723 strain highly expressing the drug efflux pump, give the measured Combination with LVFX of the entry CC(C)c1csc(COc2cc(N)cc(NC(=O)Cc3ccccc3C(=O)O)c2)n1 [Example 14]
10

For Pseudomonas aeruginosa PAM 1723 strain highly expressing the drug efflux pump, give the measured Combination with LVFX of the entry O=C(Cc1ccccc1C(=O)O)Nc1cccc(CCc2nc(-c3ccccc3)cs2)c1 [Example 10]
20

* * *

test system: Pseudomonas aeruginosa PAM 1723 strain highly expressing the drug efflux pump; test: Effect of combinational use with an antimicrobial agent on multidrug resistant Pseudomonas aeruginosa (broth culture, transmittance and turbidity readout); type: cell-based; conditions: minimum concentration of compound required to enhance antibacterial activity, azthreonam (AZT) at 1/8 or less of the minimum inhibitory concentration, combinational use for 18 hours, MHB, 1 × 10^6 CFU/ml
propertyLabel: Combination with AZT (µg/mL)
The response must be a number in µg/mL with no trailing unit.

Before answering, review these 5 worked examples.
molecule="O=C(Cc1ccccc1C(=O)O)Nc1cccc(/C=C/c2ccc(-c3ccccc3)o2)c1 [Example 4]" testedtarget="Pseudomonas aeruginosa PAM 1723 strain highly expressing the drug efflux pump" propertylabel="Combination with AZT" datavalue=2.5
molecule="O=C(Cc1ccccc1C(=O)O)Nc1cccc(/C=C/c2nc(-c3ccccc3)cs2)c1 [Example 1]" testedtarget="Pseudomonas aeruginosa PAM 1723 strain highly expressing the drug efflux pump" propertylabel="Combination with AZT" datavalue=1.25
molecule="O=C(Cc1ccccc1C(=O)O)Nc1cccc(C(=O)Nc2nc(-c3ccccc3)cs2)c1 [Example 12]" testedtarget="Pseudomonas aeruginosa PAM 1723 strain highly expressing the drug efflux pump" propertylabel="Combination with AZT" datavalue=20
molecule="O=C(Cc1ccccc1C(=O)O)Nc1cccc(OCc2ccc3ccccc3n2)c1 [Example 2]" testedtarget="Pseudomonas aeruginosa PAM 1723 strain highly expressing the drug efflux pump" propertylabel="Combination with AZT" datavalue=5
molecule="CC(C)c1cccc(COc2cccc(NC(=O)Cc3ccccc3C(=O)O)c2)n1 [Example 9]" testedtarget="Pseudomonas aeruginosa PAM 1723 strain highly expressing the drug efflux pump" propertylabel="Combination with AZT" datavalue=2.5

Output Combination with AZT of O=C(Cc1ccccc1C(=O)O)Nc1cccc(C2CC2c2nc(-c3ccccc3)cs2)c1 (centres unmarked) [Example 11]
40

Output Combination with AZT of CC(C)c1csc(COc2cc(N)cc(NC(=O)Cc3ccccc3C(=O)O)c2)n1 [Example 14]
10

The reported numbers originate from patent EP1652839A2.
